assayedSystem: purified catalytic domain of recombinant human TACE (rhTACEc) (Homo sapiens, UniProt P78536, N452Q/S266A)
Construct: 6xHis (C); made in house; host or cells: baculovirus/Hi5 insect cells
Sequence (P78536 215-477 S266A/N452Q): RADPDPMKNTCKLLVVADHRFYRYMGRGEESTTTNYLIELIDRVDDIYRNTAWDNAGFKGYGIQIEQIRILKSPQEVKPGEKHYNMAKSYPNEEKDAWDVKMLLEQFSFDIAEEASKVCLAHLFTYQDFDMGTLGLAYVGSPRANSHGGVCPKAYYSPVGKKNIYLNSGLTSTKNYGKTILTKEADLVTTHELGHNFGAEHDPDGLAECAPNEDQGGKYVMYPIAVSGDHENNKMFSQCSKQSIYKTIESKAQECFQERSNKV
assayProtocol: TACE kinetic assay: cleavage of internally quenched peptide substrate TNF-FRET 2 (Ki)
Format: biochemical
setupConditions: TNF-FRET 2 substrate, read-out: Ki
pKi: −log10 of the molar value.
measurementName: pKi

Below, 2 molecules whose answers are already recorded.
smilesNotation: COc1ccc2c(c1Cl)C(=O)N(C[C@@]1(c3cc4cnccc4o3)NC(=O)NC1=O)C2
pKi: 9.24
--
smilesNotation: COc1ccc2c(c1)C(=O)N(C[C@@]1(c3cc4cnc(-c5c(C)noc5C)cc4o3)NC(=O)NC1=O)C2
pKi: 9.14

1: CSc1ccc2c(c1)C(=O)N(C[C@@]1(c3cc4cnccc4o3)NC(=O)NC1=O)C2
2: Cn1cc(-c2ccc3c(c2)C(=O)N(C[C@@]2(c4cc5ncccc5o4)NC(=O)NC2=O)C3)cn1
Request: Select the item with the higher value of pKi from the options 1 and 2 listed. Could you answer with the label of the item you picked?
Result: 1

----------
assayedSystem: purified catalytic domain of recombinant human TACE (rhTACEc) (Homo sapiens, UniProt P78536, N452Q/S266A)
Construct: 6xHis (C); made in house; host or cells: baculovirus/Hi5 insect cells
assayProtocol: TACE kinetic assay: cleavage of internally quenched peptide substrate TNF-FRET 2 (Ki)
Assay type: biochemical
setupConditions: TNF-FRET 2 substrate, read-out: Ki
measurementName: Ki (nM)

Below, 2 molecules whose answers are already recorded.
molecule: COc1ccc2c(c1)C(=O)N(C[C@@]1(c3cc4cc(C(=O)NO)ccc4o3)NC(=O)NC1=O)C2
unitName: nM
Ki: 0.5
//
molecule: CCN1CCN(c2ccc3oc([C@]4(CN5Cc6ccc(OC)cc6C5=O)NC(=O)NC4=O)cc3n2)CC1
unitName: nM
Ki: 0.807

A: CCN1CCN(c2cc3oc([C@]4(CN5Cc6ccc(OC)c(F)c6C5=O)NC(=O)NC4=O)cc3nc2C)CC1
B: COc1ccc2c(c1)C(=O)N(C[C@@]1(c3cc4ncc(C(=O)NC5CC5)cc4o3)NC(=O)NC1=O)C2 [Compound 2460]
Request: Hi there, can you help? I need to know whether A or B has lower measured Ki. Could you answer with the label of the item you picked?
Result: B
(B: 0.556 nM, A: 2.16 nM)

I: COc1ccc2c(c1)C(=O)N(C[C@@]1(c3cc4nc(NS(=O)(=O)C5CC5)ccc4o3)NC(=O)NC1=O)C2 [Compound 2318]
II: COc1ccc2c(c1)C(=O)N(C[C@@]1(c3cc4cc(F)ncc4o3)NC(=O)NC1=O)C2
Request: Select the item with the higher value of Ki from the options I and II listed. Could you answer with the label of the item you picked?
Result: I
(I: 0.579 nM, II: 0.276 nM)

----------
assayProtocol: Area under the curve determinations of plasma levels in rats (rrAUC), oral 10 mg/kg
Format: in vivo
setupConditions: rat, plasma 0.5-6 h post-dosing, read-out: RR AUC (rapid rat AUC, rrAUC)
measurementName: AUC (µM·h)

Below, 2 compounds whose answers are already recorded.
smilesNotation: COc1ccc2c(c1F)C(=O)N(C[C@@]1(c3cc4ncccc4o3)NC(=O)NC1=O)C2
unitName: µM·h
AUC: 3.92
--
smilesNotation: COc1ccc2c(c1)C(=O)N(C[C@@]1(c3cc4ccc(-c5nnco5)cc4o3)NC(=O)NC1=O)C2
unitName: µM·h
AUC: 0.988

1: COc1ccc2c(c1)C(=O)N(C[C@@]1(c3cc4nc(Nc5ncccn5)ccc4o3)NC(=O)NC1=O)C2
2: COc1ccc2c(c1)C(=O)N(C[C@@]1(c3cc4nc(-c5c(C)nn(C)c5C)ccc4o3)NC(=O)NC1=O)C2
Request: Select the item with the higher value of AUC from the options 1 and 2 listed. Could you answer with the label of the item you picked?
Result: 2
(2: 7.54 µM·h, 1: 4.83 µM·h)

Taken from patent US8569336B2.
